- METHOD DESCRIPTION: chemical genetic growth profiling, strain panel (AID 1159580);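 also: tested at 20 µM; growth read once vehicle control cultures reached saturation at 30 °C; 1 = growth at the plate median or of vehicle wells; lower values mean less growth of the strain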
- ASSAY CONTEXT: S. cerevisiae deletion strains, growth OD, locus YML016C, strain PPZ1
Out of some 5,500 compounds screened, about 2,000 (36%) were called active. Inconclusive results (about 18%) are left out. Rule as the data show it: active = normalized growth mostly below about 0.91 (no sharp cut-off); inconclusive = no clear call, values can overlap the other calls; inactive = mostly above about 0.92. Some of the results follow.
Please state which outcome applies, choosing from active, inactive

| COMPOUND | DISCRETE LABEL |
| --- | --- |
| Cn1c(=O)c2[nH]cnc2n(C)c1=O | inactive |
| C=C1CCC(=O)C(C)CCC2C1CC2(C)C (stereo not given) | inactive |
| O=C1OC(c2ccc(O)cc2)(c2ccc(O)cc2)c2ccccc21 | inactive |
| Oc1ccc(Cl)cc1 | inactive |
| CC(C)C(=O)Nc1ccc([N+](=O)[O-])c(C(F)(F)F)c1 | inactive |
| C=CCSCC1Nc2cc(Cl)c(S(N)(=O)=O)cc2S(=O)(=O)N1 (stereo not given) | inactive |

I'd appreciate the recorded outcome for `CC(=O)N[C@@H](CS)C(=O)O` from this test.
inactive

// param item: `Clc1cccc(Cl)c1NC1=NCCN1` ; yields the recorded call
inactive

Please indicate how the test categorized `NC[C@@H]1CC[C@@H](N)[C@@H](O[C@H]2[C@H](O)[C@@H](O[C@H]3O[C@H](CO)[C@@H](O)[C@H](N)[C@H]3O)[C@H](N)C[C@@H]2N)O1` .
inactive

Test call, this compound: `Oc1ccc(Cl)cc1Cc1cc(Cl)ccc1O`
active

// return assay outcome for C=C1C(C)C2C(Cc3ccccc3)NC(=O)C23OC(=O)/C=C/C(O)CCCC(C)C/C=C/C3C1O (stereo not given)
inactive

Returns: the outcome recorded for CCCNC1CCc2nc(N)sc2C1 (stereo not given) in this assay.
inactive

Record request — test call for O=C(C1CCCCC1)N1CC(=O)N2CCc3ccccc3C2C1 (stereo not given)
inactive

Write down the call the test reported for this compound. Item: `O=C(O)c1cc2cc(Cc3cccnc3)ccc2o1`
inactive

I would be grateful if you could indicate the recorded call for `Cc1cccc(C)c1NC1=NCCCS1` .
inactive

Assay outcome for C=C1CCC(OC(C)=O)/C(C)=C/C[C@@H]2[C@@H]1CC2(C)C (stereo not given in full) : what was it?
inactive

###

# normalized growth per entry
- METHOD DESCRIPTION: chemical genetic growth profiling, strain panel (AID 1159580);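 also: tested at 20 µM; growth read once vehicle control cultures reached saturation at 30 °C; 1 = growth at the plate median or of vehicle wells; lower values mean less growth of the strain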
- ASSAY CONTEXT: S. cerevisiae deletion strains, growth OD, locus YMR058W, strain fet3, hits give low values
The campaign covered roughly 5,500 compounds. About 2,000 (36%) were called active. Not shown: some 18% with an inconclusive outcome. Some of the results follow.
Could you respond with only the numeric value?

Form: compound = CC(C)COCC(CN(Cc1ccccc1)c1ccccc1)N1CCCC1 (centres undefined) ; normalized growth = 0.997

For reference, reported normalized growth for COc1ccc2c(c1OC)C(=O)OC2[C@H]1c2c(cc3c(c2OC)OCO3)CCN1C (some centres undefined) stands at 1.01

For reference, reported normalized growth for `O=C(Cn1ccnc1[N+](=O)[O-])NCCO` stands at 1.01

GET /value?item= `COc1c2ccoc2c(OC)c2oc(=O)ccc12` &field=normalized growth returns 0.921

###

- METHOD DESCRIPTION: chemical genetic growth profiling, strain panel (AID 1159580);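 also: tested at 20 µM; growth read once vehicle control cultures reached saturation at 30 °C; 1 = growth at the plate median or of vehicle wells; lower values mean less growth of the strain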
- ASSAY CONTEXT: S. cerevisiae deletion strains, growth OD, locus YNL298W, strain CLA4, hits give low values
Screen size: about 5,500 compounds; about 2,000 (36%) were called active. Another 18% or so got no clear call; they are omitted. Some of the results follow.
Each entry below carries its reported normalized growth.

| CHEMICAL SMILES | normalized growth |
| --- | --- |
| CC(=O)Oc1c(C)cccc1C(=O)O | 0.987 (inactive) |

Lab note: measured normalized growth of `CC[C@H](C)C(=O)O[C@H]1C[C@@H](C)C=C2C=C[C@H](C)[C@H](CC[C@@H]3C[C@@H](O)CC(=O)O3)[C@H]21` was 0.99 (inactive)

# normalized growth of `Cc1cccc(C(=O)O)c1O` = 0.996 (inactive)

// `OCc1ccccc1O` : normalized growth value = 0.981 (inactive)

get_value(item= `CC1(C)O[C@H]2[C@H](O)C[C@](O)(C(N)=O)C[C@H]2O1` , readout=normalized growth) returns 1.02 (inactive)

Sure, the documented normalized growth for `Oc1ccc(Cl)cc1` is 0.971 (inactive)
